biological target: human OX2R (Homo sapiens); experiment: IPOne (IP-1 accumulation) assay in CHO cells expressing human OX2R; details: CHO cells expressing human OX2R; IP-One assay, 2 h incubation; four parameter logistic fit; read-out: OX2R Potency, EC50
Sequence (O43614 whole entry): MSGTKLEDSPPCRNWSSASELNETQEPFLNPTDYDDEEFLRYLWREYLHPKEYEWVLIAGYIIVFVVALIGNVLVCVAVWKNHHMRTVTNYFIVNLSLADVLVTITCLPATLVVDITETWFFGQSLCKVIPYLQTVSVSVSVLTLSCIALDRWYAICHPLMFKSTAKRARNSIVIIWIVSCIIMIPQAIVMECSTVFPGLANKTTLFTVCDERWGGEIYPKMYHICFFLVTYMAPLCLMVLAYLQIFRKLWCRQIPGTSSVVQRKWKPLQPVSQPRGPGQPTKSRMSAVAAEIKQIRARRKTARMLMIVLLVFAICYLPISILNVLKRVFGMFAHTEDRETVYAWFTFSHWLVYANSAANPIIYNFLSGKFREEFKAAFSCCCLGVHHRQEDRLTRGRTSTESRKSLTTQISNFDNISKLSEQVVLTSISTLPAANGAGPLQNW
Decision: EC50 beneath 10 nM gives T; EC50 meeting or exceeding 10 nM gives F.

Examples with answers:
CCN(C(=O)NC(C(F)F)C1CC1)[C@@H](c1cc(-c2cn3ccnc3c(OC)n2)c(OC)cn1)C(F)(F)F (some centres unmarked) = F
CCOC1(CC(NC(=O)N(CC)[C@H](C)c2cccc(-c3cn4ccnc4c(OC)n3)c2)C(F)(F)F)CC1 (some centres unmarked) = F
CC[C@H](CC(F)(F)F)NC(=O)N(CC)C(c1cc(-c2cn3ccnc3c(OC)n2)c(OC)cn1)C(F)(F)F (some centres unmarked) = T
CCN(C(=O)NC(C1CC1)C(F)(F)F)C(c1cc(-c2cn3ccnc3c(OC)n2)c(OC)cn1)C(F)(F)F (centres unmarked) = F

Decide: EC50 of CCN(C(=O)NC(CC1CCCO1)C(F)(F)F)[C@@H](c1cc(-c2cn3cc(C)nc3c(OC)n2)c(OC)cn1)C(F)(F)F (some centres unmarked) strictly below 10 nM?
F
